Reported Fab IL-1α ND10 values follow for various binders
Biological target: T1, human IL-1α (human, UniProt P01583 113-271)
T1 sequence (looked up): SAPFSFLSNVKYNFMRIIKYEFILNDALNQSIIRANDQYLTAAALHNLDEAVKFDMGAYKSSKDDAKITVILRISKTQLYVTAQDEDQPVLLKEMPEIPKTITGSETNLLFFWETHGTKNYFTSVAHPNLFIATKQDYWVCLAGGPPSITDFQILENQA
Test: cell-based or functional assay
The reply must contain the numeric value and, after it, the unit.

>>> test_value("Fab ABT1-122/ABT2-65 (Fab, V domains shown) VH: EVQLLESGGGLVQPGGSLRLSCAASGFTFEDYQMGWVRQAPGKGLEWVSSISAMGNRTYYADSVKGRFTISRDDSKNTLYLQMNSLRAEDTAVYYCAKNLVRTQSKMWMFDYWGQGTLVTVSS VL: DIQMTQSPSSLSASVGDRVTITCRASQPIWTELNWYQQKPGKAPKLLIYGSSSLQSGVPRFSGSGSGTDFTLTISSLQPEDFATYYCQQFAYFPATFGQGTKVEIKR")
"40 nM"

Fab ABT1-96/ABT2-42 (Fab, V domains shown) VH: EVQLLESGGGLVQPGGSLRLSCAASGFTFNQYNMFWVRQAPGKGLEWVSVISGSGRFTYADSVKGRFTISRDNSKNTLYLQMNSLRAEDTAVYYCAKGWWRRDPPFDYWGQGTLVTVSS VL: DIQMTQSPSSLSASVGDRVTITCRASQYIEKWLTWYQQKPGKAPTLLIYRGSLLQSGVPRFSGSGSGTDFTLTISSLQPEDFATYYCQQTEYWPFTFGQGTKVEIKR yielded Fab IL-1α ND10 of 3 nM
